Test: self-splicing fitness, log relative to wild type (ln ratio); higher = more splicing; Tetrahymena group I intron in knt gene, E. coli kanamycin selection, DiMSum; sequences stand for … in CUCUCU…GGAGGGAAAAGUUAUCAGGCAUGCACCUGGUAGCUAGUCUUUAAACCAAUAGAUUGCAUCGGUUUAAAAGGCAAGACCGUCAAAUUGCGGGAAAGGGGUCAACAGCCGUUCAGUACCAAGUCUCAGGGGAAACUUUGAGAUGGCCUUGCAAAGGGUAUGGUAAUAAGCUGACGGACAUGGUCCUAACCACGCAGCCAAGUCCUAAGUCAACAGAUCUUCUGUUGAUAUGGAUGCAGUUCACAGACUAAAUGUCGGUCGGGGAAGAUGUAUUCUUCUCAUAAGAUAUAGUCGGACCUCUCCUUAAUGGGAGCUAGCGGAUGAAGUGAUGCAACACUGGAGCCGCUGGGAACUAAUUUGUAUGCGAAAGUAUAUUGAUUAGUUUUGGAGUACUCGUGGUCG;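 note: selection with 25 µg/mL kanamycin versus none on LB agar overnight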
Settings: 30 °C
PARAMETER: self-splicing fitness (ln)
One number for each entry.

Examples from the recorded data:
[[record]]
residue_sequence = "CCAGAGCAAUAUUACGUAUG"
reading = -2.22

[[record]]
residue_sequence = "CACUAGCAAUAUUACGCAGU"
reading = -4.15

[[record]]
residue_sequence = "AUCGAGCAAUAUUACGCAGA"
reading = -3.09

[[record]]
residue_sequence = "UCGAAGCAAUAUUACGGUGU"
reading = -2.05

[[record]]
residue_sequence = "AGAGAGCAAUAUUACGCCGG"
reading = -1.82


Fill in self-splicing fitness (ln) for each of the 7 sequences listed.
1. CAAGAGCAAUAUUACGACUC
2. AUCAAGCAAUAUUACGUAUA
3. UCGCAGCAAUAUUACGACUA
4. GGGAAGCAAUAUUACGCUCG
5. GACCAGCAAUAUUACGUAGG
6. AGAGAGCAAUAUUACGAAUG
7. GGCGAGCAAUAUUACGAAGU

-- reply
[-2.72, -2.76, 0.0221, -0.703, -2.31, -2.07, -2.81]

Fill in self-splicing fitness (ln) for each of the 7 sequences listed.
1. GCCCAGCAAUAUUACGUUAC
2. CGCAAGCAAUAUUACGUACU
3. CUCAAGCAAUAUUACGAGUG
4. ACAAAGCAAUAUUACGUUUC
5. UGUAAGCAAUAUUACGAGGA
6. GCAGAGCAAUAUUACGCAGC
7. AUCGAGCAAUAUUACGACAU

-- reply
-2.2
-1.64
-2.91
-4.84
-2.17
-2.42
-0.347

Fill in self-splicing fitness (ln) for each of the 4 sequences listed.
1. UCCGAGCAAUAUUACGUAAG
2. GUUUAGCAAUAUUACGGCCU
3. AGAGAGCAAUAUUACGGGAA
4. CUGCAGCAAUAUUACGUACC

-- reply
[-4.92, -0.716, -4.12, -3.22]

###

Give measured self-splicing fitness (ln) for each item. Keep answers brief.
Experiment: self-splicing fitness, log relative to wild type (ln ratio); higher = more splicing; Tetrahymena group I intron in knt gene, E. coli kanamycin selection, DiMSum; sequences stand for … in CUCUCU…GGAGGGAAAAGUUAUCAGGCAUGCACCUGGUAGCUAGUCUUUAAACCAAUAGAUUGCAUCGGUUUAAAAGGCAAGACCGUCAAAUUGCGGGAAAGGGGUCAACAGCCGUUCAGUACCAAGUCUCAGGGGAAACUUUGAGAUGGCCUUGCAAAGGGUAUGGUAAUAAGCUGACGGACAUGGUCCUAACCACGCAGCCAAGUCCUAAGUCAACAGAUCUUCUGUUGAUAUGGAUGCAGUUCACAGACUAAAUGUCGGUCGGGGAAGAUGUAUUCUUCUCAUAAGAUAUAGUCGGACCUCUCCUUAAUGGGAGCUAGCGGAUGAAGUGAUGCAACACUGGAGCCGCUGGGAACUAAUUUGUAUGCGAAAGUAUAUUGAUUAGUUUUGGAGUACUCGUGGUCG
Conditions: 37 °C
One number for each entry.

[[record]]
residue_sequence = "GCCCAGCAAUAUUACGUGGC"
reading = -1.39

[[record]]
residue_sequence = "CUCAAGCAAUAUUACGAAUU"
reading = -3.03

[[record]]
residue_sequence = "AGAGAGCAAUAUUACGAGGU"
reading = -1.87

[[record]]
residue_sequence = "CCUGAGCAAUAUUACGCCUG"
reading = -2.47

[[record]]
residue_sequence = "CCCCAGCAAUAUUACGAAGU"
reading = -3.21

[[record]]
residue_sequence = "UGAAAGCAAUAUUACGAUAC"
reading = -2.8


Fill in self-splicing fitness (ln) for each of the 6 sequences listed.
1. AGAAAGCAAUAUUACGACUU
2. UUGUAGCAAUAUUACGGGGC
3. AAUUAGCAAUAUUACGGAAC
4. UGCUAGCAAUAUUACGAAGU
5. AGACAGCAAUAUUACGGCUC
6. CCCAAGCAAUAUUACGAUCC

-- reply
[0.222, -3.67, -2.18, -2.51, -1.02, -2.85]

Fill in self-splicing fitness (ln) for each of the 8 sequences listed.
1. CUUCAGCAAUAUUACGUAUU
2. CUUCAGCAAUAUUACGAACA
3. UGUCAGCAAUAUUACGCACA
4. GGUUAGCAAUAUUACGGACG
5. GUAUAGCAAUAUUACGCGCA
6. GCGAAGCAAUAUUACGCCCG
7. AGGCAGCAAUAUUACGCAAG
8. AGCGAGCAAUAUUACGCGUG

-- reply
1: -2.37; 2: -1.3; 3: -0.355; 4: -0.388; 5: -0.955; 6: -1.68; 7: -0.387; 8: -1.65

Fill in self-splicing fitness (ln) for each of the 7 sequences listed.
1. GACAAGCAAUAUUACGGUUG
2. UCCCAGCAAUAUUACGUUAU
3. AACCAGCAAUAUUACGAUUA
4. CCCGAGCAAUAUUACGCGGU
5. AGUUAGCAAUAUUACGGAGU
6. ACAAAGCAAUAUUACGUAAG
7. GAGGAGCAAUAUUACGGAGG

-- reply
1: -1.15; 2: -2.47; 3: -0.164; 4: -2.7; 5: -1.3; 6: -0.79; 7: -2.2

The values you see were collected from the supplement of paper PMC7877785.
